tested.system: T1, QP271 (rhesus SIRPα1-flag-his T-557-28) (rhesus monkey)
T1 construct: also called rhesus monkey SIRPα (QP271); monkeySIRPα1-flag-his
T1 chain: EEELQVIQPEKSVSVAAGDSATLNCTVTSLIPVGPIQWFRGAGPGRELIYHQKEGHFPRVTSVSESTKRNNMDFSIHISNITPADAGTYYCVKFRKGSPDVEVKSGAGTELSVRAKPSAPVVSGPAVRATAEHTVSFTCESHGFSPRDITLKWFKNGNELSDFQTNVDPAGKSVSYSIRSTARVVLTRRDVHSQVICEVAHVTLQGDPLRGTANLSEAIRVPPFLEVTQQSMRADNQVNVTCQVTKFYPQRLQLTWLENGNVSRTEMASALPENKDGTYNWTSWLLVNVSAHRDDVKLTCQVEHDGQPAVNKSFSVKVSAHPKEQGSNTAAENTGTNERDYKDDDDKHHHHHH
measurement.protocol: SPR, Biacore
quantity.name: Kd (nM)
Expressed in nM, but write only the number.

## Task Which measured Kd value corresponds to QP256253 (antibody, human IgG4, V domains shown, also called humanized antibody QP256253; QP163164 humanized clone) VH: QVQLVQSGAEVKKPGASVKVSCKASGYTFTNYWINWVRQAPGQGLEWIAMIDPSDSETHYNQIFKDRATLTTDTSTSTAYMELRSLRSDDTAVYYCAMDYGSLYAMDYWGRGTLVTVSS VL: DIVLTQSPDSLAVSLGERATINCRASKSVSSSGYNYIFWYQQKPGQPPKLLIYLASNLDSGVPDRFSGSGSGTDFTLTISSLQAEDVAVYYCQHSRELPTFGQGTKLEIK ?
## Result 7.97

Hey, just so you know, these numbers are from patent US20250326840A1.
